# measurementTarget: strychnine-insensitive Glycine receptor (Rattus norvegicus, UniProt P35439)
# Construct: synaptic plasma membranes (SPM) prepared from rat forebrain
# protocolNotes: [3H]Glycine binding inhibition, Triton-washed rat forebrain synaptic plasma membranes (SPM)
# appliedConditions: inhibition of 10 nM [3H]glycine binding, pH 7.4, 10 min at 2° C., nonspecific: 100 μM glycine, read-out: AFFINITY [3H]GLYCINE (Ki)
# Experimental: [^3 H]Glycine binding was performed using Triton ×-100 washed synaptic plasma membranes (SPM) prepared from rat forebrain (30-45 day old, male Sprague Dawley; Sasco, St. Charles Mo.). […] Following a 10 min incubation at 2° C. the bound radioactivity was separated from the free by either centrifugation (12000 g for 25 min at 4° C.) or vacuum filtration through Whatman GF/B filters using a Brandel MB-18 Harvester. […]
pKi: −log10 of the molar value.
measurementLabel: pKi

Observe how each entry below is paired with its result.
compound: C/C=C/[C@@H](N)C(=O)O (stereo in doubt) [Compound 2, trans-D-2-amino-pent-3-enoic acid]
measurementTarget: strychnine-insensitive Glycine receptor (Rattus norvegicus, UniProt P35439)
pKi: 5.32
--
compound: N[C@H](/C=C/CCO)C(=O)O (stereo in doubt)
measurementTarget: strychnine-insensitive Glycine receptor (Rattus norvegicus, UniProt P35439)
pKi: 6.55
--
compound: CCC/C=C/[C@H](N)C(=O)O (stereo in doubt) [Compound 3, trans-L-2-amino-hept-3-enoic acid]
measurementTarget: strychnine-insensitive Glycine receptor (Rattus norvegicus, UniProt P35439)
pKi: 5.31
--
compound: N[C@@H](/C=C/CCO)C(=O)O (stereo in doubt)
measurementTarget: strychnine-insensitive Glycine receptor (Rattus norvegicus, UniProt P35439)
pKi: 6.11
--
compound: C/C=C/[C@H](N)C(=O)O (stereo in doubt) [Compound 1, trans-L-2-amino-pent-3-enoic acid]
measurementTarget: strychnine-insensitive Glycine receptor (Rattus norvegicus, UniProt P35439)
pKi: 5.14

a. CCCCCC/C=C/[C@H](N)C(=O)O (stereo in doubt) [Compound 5, trans-L-2-amino-dec-3-enoic acid]
b. CCC/C=C/[C@@H](N)C(=O)O (stereo in doubt) [Compound 4, trans-D-2-amino-hept-3-enoic acid]
c. CCCCCC/C=C/[C@@H](N)C(=O)O (stereo in doubt) [Compound 6, trans-D-2-amino-dec-3-enoic acid]
Exam item: Parameters: sort_field (pKi), sort_dir (desc). Would you mind listing the labels in the order requested?
Marked response: a, b, c
